- system_under_test: UniProtKB Q9NTG7
- Sequence (Q9NTG7 whole entry, the tested form may be a part): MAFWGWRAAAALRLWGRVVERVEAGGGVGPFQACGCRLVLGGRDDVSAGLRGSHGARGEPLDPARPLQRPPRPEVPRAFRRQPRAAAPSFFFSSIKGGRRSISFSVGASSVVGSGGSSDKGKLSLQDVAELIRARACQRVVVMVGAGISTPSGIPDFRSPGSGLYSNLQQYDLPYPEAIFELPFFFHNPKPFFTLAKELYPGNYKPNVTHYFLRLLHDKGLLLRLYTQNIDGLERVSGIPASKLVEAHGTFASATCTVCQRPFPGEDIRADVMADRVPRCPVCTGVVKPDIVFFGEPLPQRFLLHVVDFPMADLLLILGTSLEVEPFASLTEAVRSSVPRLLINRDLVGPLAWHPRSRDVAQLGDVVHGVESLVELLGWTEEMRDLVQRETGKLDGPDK
- test_description: Inhibition of AMC-conjugated recombinant human SIRT3 ( 317 to 320 residues) using […] substrate incubated for 45 mins by fluorescence based assay
result_type: IC50 (µM)

smiles_repr=CC(C)=CCc1c(O)cc2oc3cc(O)c(O)c(CC=C(C)C)c3c(=O)c2c1O measured_result=26.8

----------
- system_under_test: NAD-dependent protein deacetylase sirtuin-1 (Homo sapiens, UniProt Q96EB6)
- Sequence (Q96EB6 whole entry, the tested form may be a part): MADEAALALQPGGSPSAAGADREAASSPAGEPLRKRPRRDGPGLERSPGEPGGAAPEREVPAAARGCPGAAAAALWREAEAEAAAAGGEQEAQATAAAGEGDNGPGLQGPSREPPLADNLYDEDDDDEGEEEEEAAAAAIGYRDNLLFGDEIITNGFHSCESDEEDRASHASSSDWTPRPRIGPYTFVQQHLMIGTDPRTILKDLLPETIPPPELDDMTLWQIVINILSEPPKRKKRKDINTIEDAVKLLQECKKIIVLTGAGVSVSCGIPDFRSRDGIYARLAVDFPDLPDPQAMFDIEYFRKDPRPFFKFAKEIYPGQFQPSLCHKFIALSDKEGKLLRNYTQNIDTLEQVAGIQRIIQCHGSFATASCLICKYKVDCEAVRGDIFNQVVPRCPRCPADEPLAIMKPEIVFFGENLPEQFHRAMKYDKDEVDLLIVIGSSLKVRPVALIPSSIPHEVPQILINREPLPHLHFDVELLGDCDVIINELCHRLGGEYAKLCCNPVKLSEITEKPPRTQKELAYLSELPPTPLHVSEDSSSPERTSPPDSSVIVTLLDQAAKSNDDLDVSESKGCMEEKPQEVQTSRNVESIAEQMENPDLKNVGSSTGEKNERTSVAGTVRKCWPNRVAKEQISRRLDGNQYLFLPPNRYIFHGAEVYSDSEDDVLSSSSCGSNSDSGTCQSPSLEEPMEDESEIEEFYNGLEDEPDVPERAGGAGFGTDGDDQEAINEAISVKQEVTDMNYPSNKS
- test_description: Inhibition of AMC-conjugated recombinant human SIRT1 (379 to 382 residues) using […] substrate incubated for 45 mins by fluorescence based assay
result_type: IC50

smiles_repr=CC(C)=CCc1c(O)cc2oc3cc(O)c(O)c(CC=C(C)C)c3c(=O)c2c1O result_type=IC50 measured_result="22.4 µM"
